Data credit: patent US11339161B2

Target: MAP4K4 (HGK) (Homo sapiens, UniProt O95819)
Sequence (O95819 whole entry): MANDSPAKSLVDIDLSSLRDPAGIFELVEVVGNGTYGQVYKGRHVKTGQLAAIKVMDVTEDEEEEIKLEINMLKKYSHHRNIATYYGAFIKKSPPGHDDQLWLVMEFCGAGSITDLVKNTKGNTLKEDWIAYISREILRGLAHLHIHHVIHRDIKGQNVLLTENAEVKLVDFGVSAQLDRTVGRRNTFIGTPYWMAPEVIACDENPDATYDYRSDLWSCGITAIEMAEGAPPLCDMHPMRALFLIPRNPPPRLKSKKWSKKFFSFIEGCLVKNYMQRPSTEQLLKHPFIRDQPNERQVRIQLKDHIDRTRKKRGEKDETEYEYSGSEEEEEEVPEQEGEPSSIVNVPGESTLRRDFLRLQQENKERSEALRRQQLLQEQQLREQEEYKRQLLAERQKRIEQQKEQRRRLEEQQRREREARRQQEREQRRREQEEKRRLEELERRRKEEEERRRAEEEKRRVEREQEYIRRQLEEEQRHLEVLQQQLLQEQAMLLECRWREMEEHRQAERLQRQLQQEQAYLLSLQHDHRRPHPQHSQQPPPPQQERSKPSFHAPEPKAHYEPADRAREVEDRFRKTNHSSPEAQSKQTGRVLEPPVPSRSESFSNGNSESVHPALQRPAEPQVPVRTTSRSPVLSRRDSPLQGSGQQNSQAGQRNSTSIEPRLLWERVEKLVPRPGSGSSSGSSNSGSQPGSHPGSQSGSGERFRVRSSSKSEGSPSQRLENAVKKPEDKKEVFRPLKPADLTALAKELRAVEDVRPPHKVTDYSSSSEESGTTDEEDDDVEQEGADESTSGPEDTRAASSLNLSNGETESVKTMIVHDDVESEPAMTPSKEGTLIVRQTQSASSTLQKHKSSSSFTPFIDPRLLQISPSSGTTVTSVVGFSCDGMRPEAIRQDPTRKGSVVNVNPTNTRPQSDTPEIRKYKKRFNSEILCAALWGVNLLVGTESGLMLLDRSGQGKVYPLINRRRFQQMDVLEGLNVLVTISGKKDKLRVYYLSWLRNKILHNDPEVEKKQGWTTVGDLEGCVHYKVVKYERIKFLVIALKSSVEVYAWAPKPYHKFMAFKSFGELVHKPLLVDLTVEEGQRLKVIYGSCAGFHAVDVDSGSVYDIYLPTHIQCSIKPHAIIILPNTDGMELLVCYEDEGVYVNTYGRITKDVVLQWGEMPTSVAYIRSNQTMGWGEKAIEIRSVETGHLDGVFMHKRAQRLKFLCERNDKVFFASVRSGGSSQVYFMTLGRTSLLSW
Experiment: Z'-LYTE SelectScreen biochemical kinase assay MAP4K4 (HGK)
Details: 10 μmolar compound concentration; ATP at Km app; read-out: MAP4K4 (HGK) inhibition
Value kind: inhibition at 10 µM

Some molecules with recorded inhibition at 10 µM:
- Molecule: "Fc1cccc(-c2cccn3nc(Nc4ccc5[nH]cnc5c4)nc23)c1 [Cpd. 293 in WO09155551, reference compound]"
  inhibition at 10 µM: "> 80%"
- Molecule: "CCn1ncc2c1CCC(Nc1nc3c(-c4ccc(F)cc4)cccn3n1)C2 (stereo not drawn) [Example 55]"
  inhibition at 10 µM: "40 to 80%"
- Molecule: "Cc1cc(F)ccc1-c1cccn2nc(NC3CCc4c(cnn4C)C3)nc12 (stereo not drawn) [Example 10]"
  inhibition at 10 µM: "< 40%"
- Molecule: "Cc1cc(F)ccc1-c1cccn2nc(NC3CCc4cnn(C)c4C3)nc12 (stereo not drawn) [Example 40]"
  inhibition at 10 µM: "40 to 80%"

**Q:** GET /values?readout=inhibition at 10 µM&item= CCn1ncc2c1CC[C@@H](Nc1nc3c(-c4ccc(F)c(Cl)c4)cccn3n1)C2 [Example R-61]
**A:** < 40%

**Q:** GET /values?readout=inhibition at 10 µM&item= CCCn1ncc2c1CCC(Nc1nc3c(-c4ccc(F)cc4C)cccn3n1)C2 (stereo not drawn) [Example 43]
**A:** 40 to 80%

**Q:** GET /values?readout=inhibition at 10 µM&item= Cc1cc(F)ccc1-c1cccn2nc(Nc3ccc4c(cnn4C)c3)nc12 [Example 9]
**A:** < 40%

**Q:** GET /values?readout=inhibition at 10 µM&item= CCn1ncc2c1CCC(Nc1nc3c(-c4cccc(Cl)c4)cccn3n1)C2 (stereo not drawn) [Example 59]
**A:** 40 to 80%

**Q:** GET /values?readout=inhibition at 10 µM&item= CCn1nc(Cl)c2c1CCC(Nc1nc3c(-c4ccc(F)cc4C)cccn3n1)C2 (stereo not drawn) [Example 48]
**A:** 40 to 80%
